Reported IC50 values follow for various compounds
Tested on: ZF4 (fibroblasts) cell line
assay_remarks: alamarBlue (AB) endpoint of AB/CFDA/NR multiplex, cellular respiration
Format: cell-based, zebrafish (Danio rerio)
applied_conditions: Danio rerio, Fibroblast; ZF4, 48 h exposure, nominal, log10; read-out: logIC50 (log10 IC50;nom) AB (converted)
Quick reminder: number only, in µM, skip the unit.

compound | measured_quantity | measured
CC1(C)C(C=C(Cl)c2ccc(Cl)cc2)C1C(=O)OC(C#N)c1ccc(F)c(Oc2ccccc2)c1 (stereo not shown) | IC50 | 347
CCCSc1ccc2nc(NC(=O)OC)[nH]c2c1 | IC50 | 7.76
CCC(C)C1OC2(CCC1C)CC1CC(CC=C(C)C(OC3CC(OC)C(OC4CC(OC)C(O)C(C)O4)C(C)O3)C(C)C=CC=C3COC4C(O)C(C)=CC(C(=O)O1)C34O)O2 (stereo not shown) | IC50 | 10.2
Cc1cc(-n2c(=O)[nH]c(=O)n(C)c2=O)ccc1Oc1ccc(SC(F)(F)F)cc1 | IC50 | 97.7
COC(=O)Nc1nc2ccc([S+]([O-])c3ccccc3)cc2[nH]1 (stereo not shown) | IC50 | 123
CO[C@H]1C[C@H](O[C@H]2[C@H](C)O[C@@H](O[C@@H]3/C(C)=C/C[C@@H]4C[C@@H](C[C@]5(C=C[C@H](C)[C@@H](C6CCCCC6)O5)O4)OC(=O)[C@@H]4C=C(C)[C@@H](O)[C@H]5OC/C(=C\C=C\[C@@H]3C)[C@]54O)C[C@@H]2OC)O[C@@H](C)[C@@H]1O | IC50 | 17

Moving on to the next compound.
Lookup: Endpoint output: IC50 of "COC(=O)Nc1nc2ccc(Sc3ccccc3)cc2[nH]1" . Value?
Found: 3.55

* * *

Entries annotated with measured pEC50
System: zebrafish embryos
assay_remarks: animal or person
Assay type: in vivo, zebrafish (Danio rerio)
applied_conditions: Danio rerio, read-out: EC50 48hpf
Friendly reminder that pEC50 comes from taking -log10 of the concentration in mol/L.

Lookup: Param item = "Cc1cc(-n2c(=O)[nH]c(=O)n(C)c2=O)ccc1Oc1ccc(SC(F)(F)F)cc1" ; retrieve measured pEC50.
Found: 4.90

* * *

Test system: ZF4 (fibroblasts) cell line
assay_remarks: Neutral red, fluorescence (NRf), AB/CFDA/NR multiplex, lysosome stability
Type: cell-based, zebrafish (Danio rerio)
applied_conditions: Danio rerio, Fibroblast; NR-fluo - ZF4; log10 of IC50; read-out: LogIC50 (converted)
measured_quantity: IC50 (µM)
Hi! Could you send only the number? It should be in µM, unit omitted.

Solved cases below.
compound | measured
CC1(C)C(C=C(Cl)c2ccc(Cl)cc2)C1C(=O)OC(C#N)c1ccc(F)c(Oc2ccccc2)c1 (stereo not shown) [Flumethrin, flumethrin] | 213
COC(=O)Nc1nc2ccc(Sc3ccccc3)cc2[nH]1 [Fenbendazole, fenbendazole] | 10.4
Cc1cc(-n2c(=O)[nH]c(=O)n(C)c2=O)ccc1Oc1ccc(SC(F)(F)F)cc1 [Toltrazuril, toltrazuril] | 81.3
CO[C@H]1C[C@H](O[C@H]2[C@H](C)O[C@@H](O[C@@H]3/C(C)=C/C[C@@H]4C[C@@H](C[C@]5(C=C[C@H](C)[C@@H](C6CCCCC6)O5)O4)OC(=O)[C@@H]4C=C(C)[C@@H](O)[C@H]5OC/C(=C\C=C\[C@@H]3C)[C@]54O)C[C@@H]2OC)O[C@@H](C)[C@@H]1O [Doramectin, doramectin] | 15.3
COC(=O)Nc1nc2ccc([S+]([O-])c3ccccc3)cc2[nH]1 (stereo not shown) [Oxfendazole, oxfendazole] | 54.3

Lookup: Short answer please: IC50, ZF4 (fibroblasts) cell line, entry CCC(C)C1OC2(CCC1C)CC1CC(CC=C(C)C(OC3CC(OC)C(OC4CC(OC)C(O)C(C)O4)C(C)O3)C(C)C=CC=C3COC4C(O)C(C)=CC(C(=O)O1)C34O)O2 (stereo not shown) [Ivermectin, ivermectin]
Found: 18.1

Lookup: Notebook: pull reported IC50 for ZF4 (fibroblasts) cell line, entry CCCSc1ccc2nc(NC(=O)OC)[nH]c2c1 [Albendazole, albendazole]
Found: 3.61

* * *

System: ZFL (hepatocytes) cell line
assay_remarks: cells
Assay type: cell-based, zebrafish (Danio rerio)
applied_conditions: Danio rerio, Hepatocyte; ZFL, 48 h exposure, nominal; read-out: IC50;nom CFDA
measured_quantity: IC50 (µM)
Your answer should be a plain number; it is taken to be in µM.

Worked set:
molecule | measured_quantity | unit_annotation | measured
CO[C@H]1C[C@H](O[C@H]2[C@H](C)O[C@@H](O[C@@H]3/C(C)=C/C[C@@H]4C[C@@H](C[C@]5(C=C[C@H](C)[C@@H](C6CCCCC6)O5)O4)OC(=O)[C@@H]4C=C(C)[C@@H](O)[C@H]5OC/C(=C\C=C\[C@@H]3C)[C@]54O)C[C@@H]2OC)O[C@@H](C)[C@@H]1O | IC50 | µM | 9.33
CCCSc1ccc2nc(NC(=O)OC)[nH]c2c1 | IC50 | µM | 221
CCC(C)C1OC2(CCC1C)CC1CC(CC=C(C)C(OC3CC(OC)C(OC4CC(OC)C(O)C(C)O4)C(C)O3)C(C)C=CC=C3COC4C(O)C(C)=CC(C(=O)O1)C34O)O2 (stereo not shown) | IC50 | µM | 14.1
Cc1cc(-n2c(=O)[nH]c(=O)n(C)c2=O)ccc1Oc1ccc(SC(F)(F)F)cc1 | IC50 | µM | 122

Lookup: Field request: IC50 | item: CC1(C)C(C=C(Cl)c2ccc(Cl)cc2)C1C(=O)OC(C#N)c1ccc(F)c(Oc2ccccc2)c1 (stereo not shown)
Found: 118

Lookup: Can you look up the measured IC50 of COC(=O)Nc1nc2ccc([S+]([O-])c3ccccc3)cc2[nH]1 (stereo not shown) for me?
Found: 320

Lookup: Give its IC50 value. Item: "COC(=O)Nc1nc2ccc(Sc3ccccc3)cc2[nH]1"
Found: 21.4

* * *

Test system: ZFL (hepatocytes) cell line
assay_remarks: cells
Format: cell-based, zebrafish (Danio rerio)
applied_conditions: Danio rerio, Hepatocyte; ZFL, 48 h exposure, nominal; read-out: IC50;nom BCA
measured_quantity: pIC50
Please express pIC50 as -log10 of the molar concentration.

compound | measured
CC1(C)C(C=C(Cl)c2ccc(Cl)cc2)C1C(=O)OC(C#N)c1ccc(F)c(Oc2ccccc2)c1 (stereo not shown) | 2.21
Cc1cc(-n2c(=O)[nH]c(=O)n(C)c2=O)ccc1Oc1ccc(SC(F)(F)F)cc1 | 3.53
CO[C@H]1C[C@H](O[C@H]2[C@H](C)O[C@@H](O[C@@H]3/C(C)=C/C[C@@H]4C[C@@H](C[C@]5(C=C[C@H](C)[C@@H](C6CCCCC6)O5)O4)OC(=O)[C@@H]4C=C(C)[C@@H](O)[C@H]5OC/C(=C\C=C\[C@@H]3C)[C@]54O)C[C@@H]2OC)O[C@@H](C)[C@@H]1O | 5.35
COC(=O)Nc1nc2ccc(Sc3ccccc3)cc2[nH]1 | 6.90
CCCSc1ccc2nc(NC(=O)OC)[nH]c2c1 | 7.51
COC(=O)Nc1nc2ccc([S+]([O-])c3ccccc3)cc2[nH]1 (stereo not shown) | 7.24

Now let's try a different one.
Lookup: Which pIC50 is reported for this compound? CCC(C)C1OC2(CCC1C)CC1CC(CC=C(C)C(OC3CC(OC)C(OC4CC(OC)C(O)C(C)O4)C(C)O3)C(C)C=CC=C3COC4C(O)C(C)=CC(C(=O)O1)C34O)O2 (stereo not shown)
Found: 5.15

* * *

Test system: ZFL (hepatocytes) cell line
assay_remarks: cells
Assay type: cell-based, zebrafish (Danio rerio)
applied_conditions: Danio rerio, Hepatocyte; ZFL, 48 h exposure, nominal, log10; read-out: logIC50 (log10 IC50;nom) NRf (converted)
measured_quantity: IC50

Lookup: Param item = Cc1cc(-n2c(=O)[nH]c(=O)n(C)c2=O)ccc1Oc1ccc(SC(F)(F)F)cc1 [Toltrazuril, toltrazuril] ; retrieve measured IC50.
Found: 79.4 µM

Lookup: I'd like to know its IC50. The compound in question is CO[C@H]1C[C@H](O[C@H]2[C@H](C)O[C@@H](O[C@@H]3/C(C)=C/C[C@@H]4C[C@@H](C[C@]5(C=C[C@H](C)[C@@H](C6CCCCC6)O5)O4)OC(=O)[C@@H]4C=C(C)[C@@H](O)[C@H]5OC/C(=C\C=C\[C@@H]3C)[C@]54O)C[C@@H]2OC)O[C@@H](C)[C@@H]1O [Doramectin, doramectin]
Found: 5.13 µM

Lookup: Return reported IC50; argument: CCC(C)C1OC2(CCC1C)CC1CC(CC=C(C)C(OC3CC(OC)C(OC4CC(OC)C(O)C(C)O4)C(C)O3)C(C)C=CC=C3COC4C(O)C(C)=CC(C(=O)O1)C34O)O2 (stereo not shown) [Ivermectin, ivermectin]
Found: 3.31 µM

Lookup: What does the record list as IC50 for COC(=O)Nc1nc2ccc([S+]([O-])c3ccccc3)cc2[nH]1 (stereo not shown) [Oxfendazole, oxfendazole] ?
Found: 7.41 µM

Lookup: Quick one: IC50 of CCCSc1ccc2nc(NC(=O)OC)[nH]c2c1 [Albendazole, albendazole] ?
Found: 0.724 µM

Lookup: Quick one: IC50 of CC1(C)C(C=C(Cl)c2ccc(Cl)cc2)C1C(=O)OC(C#N)c1ccc(F)c(Oc2ccccc2)c1 (stereo not shown) [Flumethrin, flumethrin] ?
Found: 158 µM

Lookup: # input compound: COC(=O)Nc1nc2ccc(Sc3ccccc3)cc2[nH]1 [Fenbendazole, fenbendazole] ; wanted: its IC50
Found: 0.589 µM
